measured target: RPA WT (RPA70-RPA32-RPA14) (human, UniProt P27694;P15927;P35244 1-616;1-270;1-121)
Sequence (P27694 whole entry, chain 1 of 3): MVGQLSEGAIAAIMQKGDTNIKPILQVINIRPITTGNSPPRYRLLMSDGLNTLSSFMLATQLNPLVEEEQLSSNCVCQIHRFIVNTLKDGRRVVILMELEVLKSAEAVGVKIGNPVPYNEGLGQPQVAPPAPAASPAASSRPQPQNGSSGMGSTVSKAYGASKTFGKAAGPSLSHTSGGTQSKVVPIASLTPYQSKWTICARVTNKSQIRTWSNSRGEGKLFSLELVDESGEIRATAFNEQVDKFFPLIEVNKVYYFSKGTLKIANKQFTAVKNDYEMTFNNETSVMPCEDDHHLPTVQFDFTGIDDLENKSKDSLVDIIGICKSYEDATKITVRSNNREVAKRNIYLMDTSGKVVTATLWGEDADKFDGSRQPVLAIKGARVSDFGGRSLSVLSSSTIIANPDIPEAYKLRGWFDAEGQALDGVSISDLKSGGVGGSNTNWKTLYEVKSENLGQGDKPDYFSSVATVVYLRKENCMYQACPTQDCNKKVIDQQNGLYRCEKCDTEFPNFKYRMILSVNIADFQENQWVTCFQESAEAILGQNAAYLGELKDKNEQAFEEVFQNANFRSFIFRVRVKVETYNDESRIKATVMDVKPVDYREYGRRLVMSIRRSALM
Sequence (P15927 whole entry, chain 2 of 3): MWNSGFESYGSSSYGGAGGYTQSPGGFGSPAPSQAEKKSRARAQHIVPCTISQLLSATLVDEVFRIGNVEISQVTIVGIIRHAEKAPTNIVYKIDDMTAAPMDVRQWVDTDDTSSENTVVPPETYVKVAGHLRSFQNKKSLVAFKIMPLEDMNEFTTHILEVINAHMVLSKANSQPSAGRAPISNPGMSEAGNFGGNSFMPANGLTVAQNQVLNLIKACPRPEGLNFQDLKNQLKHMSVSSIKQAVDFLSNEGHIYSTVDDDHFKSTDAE
Sequence (P35244 whole entry, chain 3 of 3): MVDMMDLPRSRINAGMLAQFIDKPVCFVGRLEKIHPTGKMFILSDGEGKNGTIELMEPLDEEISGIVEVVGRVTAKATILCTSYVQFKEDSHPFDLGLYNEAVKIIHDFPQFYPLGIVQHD
measurement notes: fluorescence anisotropy; 200 mM KCl; FA: 200 mM NaCl, KCl or LiCl, 20 mM HEPES pH 7.4, 1 mM DTT, 22-25 C, 375 or 750 pM oligo, Kd,app +/- SEM; EMSA: 20 mM HEPES pH 7.4, 200 mM KCl, 1 nM 32P oligo
condition info: protein: recombinant; tags: 6xHis N-term on RPA70 and RPA14; copies: 1;1;1; label: 5' fluorescein; intramolecular G4 at 5' end, 18 nt 3' tail; linear in LiCl
measured attribute: pKd
Field pKd (float): negative decimal logarithm of the concentration in molar.

Need pKd of AGGGTTAGGGTTAGGGTTAGGGTGAGTGTGAGTGTGAGTG (structured_DNA) [Tel40 5' G4] , thanks.
9.07
